Can you tell me interaction score for the items I'm about to list?
- Subject of test: T1, 4H1629-bN
- T1 chain: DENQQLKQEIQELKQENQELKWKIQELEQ
- Assay summary: two-hybrid library CCNG1;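 further: natural log of median RNA to DNA barcode read ratio; higher means stronger binding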
Give bare numbers.

Give interaction score for all binders that follow.
1. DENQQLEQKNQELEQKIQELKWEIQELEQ [4H1449-bN]
2. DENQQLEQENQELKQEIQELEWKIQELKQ [4H1222-bN]
3. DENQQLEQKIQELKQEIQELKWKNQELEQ [4H1359-bN]

Reply |
-0.745
0.612
-1.24

Give interaction score for all binders that follow.
1. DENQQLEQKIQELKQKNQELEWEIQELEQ [4H1393-bN]
2. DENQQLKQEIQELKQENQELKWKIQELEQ [4H1629-bN]

Reply |
1. -0.818
2. 1.42
